# Method description: in vitro
# Assay type: cell-based
# Condition summary: human, HepG2 or HepG2.117 cells, 3-days incubation (unmarked values), ATPlite; mean value
Would you kindly list CC50 at 3 days for each of these compounds?
Give bare numbers, in µM.

A selection of reference data follows.
• CNC(=O)c1ccc(-n2c(N[C@@H](C)c3cccc(F)c3)nc3c(c2=O)C[C@@H](C)N(C(=O)c2ccc(Cl)c(Cl)c2)C3)cc1 = 19.3
• CC[C@H]1Cc2c(nc(NC(C)C)n(-c3ccc(S(C)(=O)=O)cc3)c2=O)CN1C(=O)c1ccc(Cl)c(Cl)c1 (single isomer, unassigned) [Compound C158B] = 35.7

Give measured CC50 at 3 days for every item shown.
1. COc1ccc(CNc2nc3c(c(=O)n2C2CCS(=O)(=O)CC2)CCN(C(=O)c2ccc(Cl)c(Cl)c2)C3)cc1
2. CC(C)Nc1nc2c(c(=O)n1-c1ccc(S(C)(=O)=O)cc1)CCN(C(=O)c1[nH]c3ccccc3c1Cl)C2

Reply:
1: 33.5; 2: 28.3

---

# Method description: in vitro
# Type: cell-based
# Condition summary: human, HepG2 or HepG2.117 cells, 3-days incubation (unmarked values), ATPlite; mean value
Would you kindly list CC50 at 3 days for each of these molecules?

* CNC(=O)c1ccc(-n2c(N[C@H](C)CCO)nc3c(c2=O)C[C@@H](C)N(C(=O)c2ccc(Cl)c(Cl)c2)C3)cc1 | > 50 µM
* CC(C)Nc1nc2c(c(=O)n1CCNS(C)(=O)=O)CCN(C(=O)c1ccc(Cl)c(Cl)c1)C2 | > 50 µM
* COc1ccc(CNc2nc3c(c(=O)[nH]2)CCN(C(=O)c2ccc(Cl)c(Cl)c2)C3)cc1 | 26.6 µM

Give measured CC50 at 3 days for every item shown.
1. COc1ccc(CNc2nc3c(c(=O)n2-c2ccccc2Cl)CCN(C(=O)c2ccc(Cl)c(Cl)c2)C3)cc1
2. CNC(=O)c1ccc(-n2c(NCc3ccc(OC)cc3)nc3c(c2=O)CCN(C(=O)c2ccc(Cl)c(Cl)c2)C3)cc1

Reply:
1: > 50 µM; 2: 44.4 µM

Give measured CC50 at 3 days for every item shown.
1. COc1ccccc1-n1c(N)nc2c(c1=O)CC(C)N(C(=O)c1ccc(Cl)c(Cl)c1)C2 (stereo not drawn)
2. CC(C)Nc1nc2c(c(=O)n1-c1ccc(N3CCCC3CO)cc1)C[C@@H](C)N(C(=O)c1ccc(Cl)c(Cl)c1)C2 (stereo partly drawn)
3. CNC(=O)OCC[C@H](Nc1nc2c(c(=O)n1-c1ccc(C(=O)NC)cc1)C[C@@H](C)N(C(=O)c1ccc(Cl)c(Cl)c1)C2)C1CC1 (single isomer, unassigned)
4. CC(C)Nc1nc2c(c(=O)n1-c1ccc(-c3ncc(F)cc3F)cc1)CCN(C(=O)c1ccc(Cl)c(Cl)c1)C2
5. COc1ccc(CN(CCCO)c2nc3c(c(=O)[nH]2)CCN(C(=O)c2ccc(Cl)c(Cl)c2)C3)cc1

Reply:
1. > 50 µM
2. 31.9 µM
3. > 50 µM
4. 4.6 µM
5. 21.2 µM

Give measured CC50 at 3 days for every item shown.
1. CNC(=O)c1ccc(-n2c(NC(C)C)nc3c(c2=O)C[C@@H](C)N(C(=O)c2ccc(Cl)c(Cl)c2)C3)c(OC)c1 (single isomer, unassigned) [Compound C314a]
2. CNC(=O)c1cc(-n2c(NC(C)C)nc3c(c2=O)C[C@@H](C)N(C(=O)c2ccc(Cl)c(Cl)c2)C3)nn1C

Reply:
> 50 µM
> 50 µM

Give measured CC50 at 3 days for every item shown.
1. Cc1cc(-c2ccc(-n3c(NC(C)C)nc4c(c3=O)C[C@@H](C)N(C(=O)c3ccc(Cl)c(Cl)c3)C4)cc2)on1
2. CC(C)Nc1nc2c(c(=O)n1-c1ccc(C(=O)NCCN3CCN(C)CC3)cc1)C[C@@H](C)N(C(=O)c1ccc(Cl)c(Cl)c1)C2
3. Cc1ccncc1-n1c(NC(C)C)nc2c(c1=O)CCN(C(=O)c1ccc(Cl)c(Cl)c1)C2
4. COc1ccccc1-n1c(NC(C)c2ccncc2)nc2c(c1=O)CCN(C(=O)c1ccc(Cl)c(Cl)c1)C2 (stereo not drawn)
5. Cc1c(C(=O)N2CCc3c(nc(NC(C)C)n(-c4ccc(S(C)(=O)=O)cc4)c3=O)C2)[nH]c2ccccc12
6. CNC(=O)c1ccc(-n2c(NC(C)C)nc3c(c2=O)C[C@@H](C)N(C(=O)c2ccc(Cl)c(Cl)c2)C3)nc1

Reply:
1. > 50 µM
2. 26.3 µM
3. > 50 µM
4. > 50 µM
5. > 50 µM
6. > 50 µM

Give measured CC50 at 3 days for every item shown.
1. O=C(c1ccc(Cl)c(Cl)c1)N1CCc2c(nc(NC(CO)CO)[nH]c2=O)C1
2. C#C[C@H]1CCCN1c1nc2c(c(=O)n1-c1ccc(C(=O)NC)cc1)C[C@@H](C)N(C(=O)c1ccc(Cl)c(Cl)c1)C2 (single isomer, unassigned)
3. COc1ccc(CN(CCO)c2nc3c(c(=O)[nH]2)CCN(C(=O)c2ccc(Cl)c(Cl)c2)C3)cc1
4. CC(C)Nc1nc2c(c(=O)n1-c1ccc(-c3cc[nH]n3)cc1)C[C@@H](C)N(C(=O)c1ccc(Cl)c(Cl)c1)C2
5. COc1ccc(CNc2nc3c(c(=O)n2-c2ccnnc2)CCN(C(=O)c2ccc(Cl)c(Cl)c2)C3)cc1
6. CNC(=O)c1ncc(-n2c(NC(C)C)nc3c(c2=O)C[C@@H](C)N(C(=O)c2ccc(Cl)c(Cl)c2)C3)cn1
7. COc1ccccc1-n1c(N[C@@H](C)C(F)(F)F)nc2c(c1=O)CCN(C(=O)c1ccc(Cl)c(Cl)c1)C2

Reply:
1. > 50 µM
2. > 50 µM
3. 22.2 µM
4. 33.1 µM
5. 23.3 µM
6. > 50 µM
7. 25.2 µM

Give measured CC50 at 3 days for every item shown.
1. CC(C)Nc1nc2c(c(=O)n1-c1ccc(S(C)(=O)=O)cc1)CCN(C(=O)c1cc3cnccc3[nH]1)C2
2. COc1ccc(CNc2nc3c(c(=O)n2C(C)C)CCN(C(=O)c2ccc(Cl)c(Cl)c2)C3)cc1

Reply:
["> 50 µM", "40 µM"]

---

# Method description: in vitro
# Type: cell-based
# Condition summary: human, HepG2 or HepG2.117 cells, ATPlite, 3-days incubation (not marked with *), mean value
Would you kindly list CC50 at 3 days for each of these compounds?
Answers are plain numbers, in µM.

A selection of reference data follows.
• CNC(=O)c1ccc(-n2c(NCC3(C)CC3)nc3c(c2=O)C[C@@H](C)N(C(=O)c2ccc(Cl)c(Cl)c2)C3)cc1 = 31.8
• CNC(=O)c1ccc(-n2c(N[C@@H](C)c3ccccc3Cl)nc3c(c2=O)C[C@@H](C)N(C(=O)c2ccc(Cl)c(Cl)c2)C3)cc1 = 24.1

Task item: State the recorded CC50 at 3 days for this entry: COc1ccc(C(C)Nc2nc3c(c(=O)n2-c2ccc(NC(C)=O)cc2)C[C@@H](C)N(C(=O)c2ccc(Cl)c(Cl)c2)C3)cc1 (stereo partly drawn)
Reply: 32.6

---

# Method description: in vitro
# Type: cell-based
# Condition summary: human, HepG2 or HepG2.117 cells, ATPlite, 3-days incubation (not marked with *), mean value
Reported metric: CC50 at 3 days

A selection of reference data follows.
- CNC(=O)c1ccc(-n2c(NCc3nncn3-c3ccccc3)nc3c(c2=O)C[C@@H](C)N(C(=O)c2ccc(Cl)c(Cl)c2)C3)cc1: > 50 µM
- CNC(=O)c1cc(-n2c(NC(C)C)nc3c(c2=O)C[C@@H](C)N(C(=O)c2ccc(Cl)c(C(F)(F)F)c2)C3)n(C)n1: > 50 µM
- CNC(=O)c1ccc(-n2c(N(C)Cc3cccc(OC)c3)nc3c(c2=O)C[C@@H](C)N(C(=O)c2ccc(Cl)c(Cl)c2)C3)cc1: 38.1 µM
- CNC(=O)c1ccc(-n2c(N[C@H](C)c3ccc(C#N)cc3)nc3c(c2=O)C[C@@H](C)N(C(=O)c2ccc(Cl)c(Cl)c2)C3)cc1 (single isomer, unassigned) [Compound C441a]: > 50 µM

Now for a further compound.
Task item: State the recorded CC50 at 3 days for this entry: CNC(=O)c1ccc(-n2c(N[C@@H](C)c3ccc(OC)c(OC)c3)nc3c(c2=O)C[C@@H](C)N(C(=O)c2ccc(Cl)c(Cl)c2)C3)cc1 (single isomer, unassigned) [Compound C415b]
Reply: 27.6 µM

---

# System: HBV (HepG2.117 cell line, inducibly HBV producing)
# Method description: Anti-HBV activity: intracellular HBV DNA by real-time PCR in HepG2.117 cells after 3 days of treatment
# Format: cell-based, hepatitis B virus
# Condition summary: Hepatitis B virus, HepG2.117, 72 h, HepG2.117 cells, 3 days of treatment, intracellular HBV DNA by real-time PCR; mean value; read-out: EC50 (μM, mean value)
Would you kindly list EC50 for each of these compounds?
Give bare numbers, in µM.

* Cc1c[nH]c(-c2ccc(-n3c(NC(C)C)nc4c(c3=O)C[C@@H](C)N(C(=O)c3ccc(Cl)c(Cl)c3)C4)cc2)n1 [Compound C250] | 0.07

Now for a further compound.
Task item: State the recorded EC50 for this entry: CNC(=O)c1ccc(-n2c(N[C@H](C)C3CC3)nc3c(c2=O)C[C@@H](C)N(C(=O)c2ccc(Cl)c(Cl)c2)C3)cc1 [Compound C295]
Reply: 0.22
